Data origin, for the record: ChEMBL document CHEMBL4425114

Target: Sigma non-opioid intracellular receptor 1 (Rattus norvegicus, UniProt Q9R0C9)
Sequence (Q9R0C9 whole entry): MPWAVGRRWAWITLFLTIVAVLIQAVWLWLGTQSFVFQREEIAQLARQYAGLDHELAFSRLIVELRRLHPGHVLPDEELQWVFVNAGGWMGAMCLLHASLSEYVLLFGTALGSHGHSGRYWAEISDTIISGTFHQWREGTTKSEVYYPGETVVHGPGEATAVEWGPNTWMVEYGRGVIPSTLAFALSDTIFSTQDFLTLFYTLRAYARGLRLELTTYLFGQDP
Test: Displacement of [3H]-pentazocine from rat brain sigma1 receptor by PDSP assay
The molecules listed here are annotated with their Ki.
Write the answer as a number in nM, unit excluded.

FC(F)(F)c1ccc(OCc2cc(OC[C@@H]3CCCN3)no2)cc1    13.3
CN(CCOc1cc(COc2ccccc2)on1)C1CCCC1    0.5
FC(F)(F)c1cccc(OCc2cc(OC[C@@H]3CCCN3)no2)c1    6.6
c1ccc2cc(OCc3cc(OC[C@@H]4CCCN4)no3)ccc2c1    36.6
CCNCCOc1cc(COc2ccccc2)on1    3.7
Brc1ccc(OCc2cc(OC[C@@H]3CCCN3)no2)cc1    18.3

Ask: Quick one: give measured Ki for "CN(CCOc1cc(COc2ccccc2)on1)CC1CC1.Cl"
Reply: 0.8

Ask: Quickly give me recorded Ki for "Clc1ccccc1OCc1cc(OC[C@@H]2CCCN2)no1"
Reply: 2.7
